# credit: patent US20220144940A1

Recorded measurements of pEC50, one per entry
# target: T1, HA-tagged human ILT7 on CT-550 cells (human, UniProt P59901 24-499)
# T1 construct: whole, on cells; CT-550 cells: CT-125 cells (2B4 murine T-cell hybridoma with mouse FcεRIγ and NFAT-GFP reporter) transduced with HA-tagged human ILT7; also called human ILT7-expressing cells; not shown: HA tag
# T1 sequence (P59901 24-499): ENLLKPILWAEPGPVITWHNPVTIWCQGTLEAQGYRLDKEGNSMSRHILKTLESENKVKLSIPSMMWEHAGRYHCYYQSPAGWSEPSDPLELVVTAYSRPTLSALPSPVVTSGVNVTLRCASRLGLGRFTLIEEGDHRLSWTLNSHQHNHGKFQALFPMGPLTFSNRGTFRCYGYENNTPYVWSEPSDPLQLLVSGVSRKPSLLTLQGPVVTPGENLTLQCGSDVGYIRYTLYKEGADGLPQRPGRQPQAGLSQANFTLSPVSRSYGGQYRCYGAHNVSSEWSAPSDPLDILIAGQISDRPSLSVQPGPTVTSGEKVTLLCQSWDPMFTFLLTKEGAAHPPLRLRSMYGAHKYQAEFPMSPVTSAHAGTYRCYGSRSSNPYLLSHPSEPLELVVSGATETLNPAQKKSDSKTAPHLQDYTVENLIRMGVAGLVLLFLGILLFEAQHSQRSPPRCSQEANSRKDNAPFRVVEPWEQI
# measurement-notes: flow cytometry on CT-550 cells (human ILT7), top panel, table 'Ec50 (pM)'
Reminder that pEC50 is minus the log10 of a molar concentration.

Below, each entry is followed by its recorded pEC50 result.
binder | pEC50
ILT70080.2 (antibody, V domains shown, Engineered (germlined) variant of ILT70080, tested as IgG1) VH: QVQLVQSGAEVKKPGSSVKVSCKASGDSFRNYAVSWVRQAPGQGLEWMGAMMPSFGTREHSQQFQGRVTLSADESTSTAYMELSSLRSEDTAVYYCAGSRDYNAYHFWTGPPDFWGRGTLVTVSS VL: SYVLTQPPSVSVAPGKTARITCGGDSVGSTSVHWYQQKPGQAPVMVMFYNSDRPSGIPERFSGSISGNTATLTISRVEAGDEADYYCQVWDTSSDHPEFGGGTKLTVL | 9.65
ILT70080.6 (antibody, V domains shown, Engineered (germlined) variant of ILT70080, tested as IgG1) VH: QVQLVQSGAEVKKPGSSVKVSCKASGDSFRNYAVSWVRQAPGQGLEWMGAMMPSFGTREHSQQFQGRVTLTADESTSTAYMELSSLRSEDTAVYYCAGSRDYNAYHFWTGPPDFWGRGTLVTVSS VL: SYVLTQPPSVSVAPGKTARITCGGDSVGSTSVHWYQQKPGQAPVLVIYYNSDRPSGIPERFSGSNSGNTATLTISRVEAGDEADYYCQVWDTSSDHPEFGGGTKLTVL | 9.54
ILT70080.4 (antibody, V domains shown, Engineered (germlined) variant of ILT70080, tested as IgG1) VH: QVQLVQSGAEVKAPGTSVKVSCKASGDSFRNYAVSWVRQAPGQGLEWMGAMMPSFGTREHSQQFQGRVTLSADESTSTAYMELSSLRSEDTAVYYCAGSRDYNAYHFWTGPPDFWGRGTLVTVSS VL: SYELTQPPSVSVAPGKTAKISCGGDSVGSTSVHWYQQKPGQAPVMVMFYNSDRPSGIPERFSGSISGNTATLTISRVEAGDEADYYCQVWDTSSDHPEFGGGTKLTVL | 9.47

Next binder, pEC50 to be filled in.
// pEC50 value for ILT70080.3 (antibody, V domains shown, Engineered (germlined) variant of ILT70080, tested as IgG1) VH: QVQLVQSGAEVKAPGTSVKVSCKASGDSFRNYAVSWVRQAPGQGLEWMGAMMPSFGTREHSQQFQGRVTLSADESTSTAYMELSSLRSEDTAVYYCAGSRDYNAYHFWTGPPDFWGRGTLVTVSS VL: SYVLTQPPSVSVAPGKTARITCGGDSVGSTSVHWYQQKPGQAPVMVMFYNSDRPSGIPERFSGSISGNTATLTISRVEAGDEADYYCQVWDTSSDHPEFGGGTKLTVL : 9.70
